# TARGET_OF_ASSAY: T1, recombinant human midkine (huMK) (human, UniProt P21741 21-143)
# T1 sequence (looked up): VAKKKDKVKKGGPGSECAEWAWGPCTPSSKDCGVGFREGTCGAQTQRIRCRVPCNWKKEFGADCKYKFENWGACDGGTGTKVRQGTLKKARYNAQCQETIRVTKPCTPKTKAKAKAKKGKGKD
# EXPERIMENT_DESCRIPTION: cell-based or functional assay
Measured % Inhibition of UMR106 cell migration, Assay 4, listed per entry.
PARAMETER_MEASURED: % Inhibition of UMR106 cell migration, Assay 4

1) IP14-H6L3 (antibody, V domains shown, also called hIP14-H6L3; Hv6 Lv3) VH: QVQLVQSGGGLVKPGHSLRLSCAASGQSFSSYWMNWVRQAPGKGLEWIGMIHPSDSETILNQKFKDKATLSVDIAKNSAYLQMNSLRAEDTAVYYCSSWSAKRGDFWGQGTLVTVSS VL: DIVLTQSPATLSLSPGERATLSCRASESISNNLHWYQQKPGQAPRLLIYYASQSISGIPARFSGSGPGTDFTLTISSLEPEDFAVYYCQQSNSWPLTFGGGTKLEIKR; 48%
2) IP14-H6L8 (antibody, V domains shown, also called hIP14-H6L8; Hv6 Lv8) VH: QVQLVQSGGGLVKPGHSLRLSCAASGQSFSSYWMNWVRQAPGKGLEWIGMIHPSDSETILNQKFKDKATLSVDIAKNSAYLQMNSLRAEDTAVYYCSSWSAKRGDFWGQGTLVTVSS VL: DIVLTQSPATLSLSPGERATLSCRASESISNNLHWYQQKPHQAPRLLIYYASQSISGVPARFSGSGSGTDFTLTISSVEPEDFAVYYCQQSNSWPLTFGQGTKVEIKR; 44%
3) murine IP14 precursor antibody (antibody, V domains shown, Murine monoclonal antibody; also called mIP14; mAb IP14) VH: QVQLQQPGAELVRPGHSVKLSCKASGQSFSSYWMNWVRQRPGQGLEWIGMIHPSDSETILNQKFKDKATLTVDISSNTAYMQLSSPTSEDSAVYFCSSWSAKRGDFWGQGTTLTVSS VL: DIVLTQSPATLSVTPGDSVNLSCRASESISNNLHWYQQKSHESPRLLIKYASQSISGIPSRFSGSGSGTDFNLSVNSVETEDFGMYFCQQSNSWPLTFGAGTKLELKR; 6%
4) IP14-H5L8 (antibody, V domains shown, also called hIP14-H5L8; Hv5 Lv8) VH: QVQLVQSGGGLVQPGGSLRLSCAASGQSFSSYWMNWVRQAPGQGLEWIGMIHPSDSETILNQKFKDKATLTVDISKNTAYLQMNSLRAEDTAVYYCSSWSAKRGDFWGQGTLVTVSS VL: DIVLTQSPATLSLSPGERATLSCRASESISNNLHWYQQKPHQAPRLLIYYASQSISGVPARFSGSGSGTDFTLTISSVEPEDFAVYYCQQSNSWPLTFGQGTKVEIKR; 60%
